System: SW-620
Test: NCI tumour cell line growth inhibition, 48 h
Activity calls are given as the source filed them. Cut-off read from the data, not from the text of the source: active = GI50 up to about 1.1 µM and inactive = higher. *1 amine or outer side, *2 acyl side, *3 side chain or, on linkers, in order; H or OH if unused. Where a SMILES comes first, the peptide text is derived from it. Bridges are numbered along the chain shown (N, C = ends). [ ]: non-standard residue; d: D form. The star is where a group is joined. X36 = O=C(C(CCCCNO[*:3])N[*:1])[*:2]; Fmoc = O=C(OCC1c2ccccc2-c2ccccc21)*
Hi there, use one of these labels in your reply, thanks! active, inactive

Outcome logged for NC(=O)CNC(=O)C1CCCN1C(=O)C1CCCCNOC(=O)CCC(NC(=O)OCC2c3ccccc3-c3ccccc32)C(=O)NC(Cc2c[nH]c3ccccc23)C(=O)N1 (stereo not given) (Fmoc-EW[X36]PG-NH2; ester 1-3; configuration not given here) in this assay:
inactive

Outcome logged for CCn1c2ccccc2c2ccc(C3C4C(=O)N(c5cccc6ccccc56)C(=O)C4ON3C(C(N)=O)c3ccccc3)cc21 (stereo not given) in this assay:
inactive

Outcome logged for Cc1cccc2c1Oc1cc(Cl)ccc1C2NC(=O)CCN1CCCCC1 (stereo not given) in this assay:
inactive

Outcome logged for `CCOC(=O)c1nc2ccc(C(F)(F)F)cc2nc1NCc1ccc(F)cc1` in this assay:
inactive

Outcome logged for `Cc1cc2c(C)n(Cc3ccc(Cl)cc3Cl)nc2c(C(=O)O)c1C` in this assay:
inactive

Outcome logged for `CN(C)CCSc1cc(-c2ccccc2)c2ccccc2n1` in this assay:
inactive

Outcome logged for `C(=N\N=C1NCCCCN1)/c1ccc2ccccc2c1` in this assay:
inactive

Outcome logged for C[C@H]1CCCCC[C@@H]2CC(=O)CC2C(=O)CCC(=O)O1 (stereo not given in full) in this assay:
inactive

Outcome logged for CN1CCC2(CC1)C(=O)N(NC(N)=O)C(=O)C2c1ccccc1 (stereo not given) in this assay:
inactive

Outcome logged for CCOC(=O)C1(Cc2ccc3c(c2)CCC3)Cc2cc3c(cc2C1=O)CCC3 (stereo not given) in this assay:
inactive

Outcome logged for C[C@@H](CCO)OC1OC(COC(=O)C(C)(C)C)C(OC(=O)C(C)(C)C)C(OC(=O)C(C)(C)C)C1OC(=O)C(C)(C)C (stereo not given in full) in this assay:
inactive

Outcome logged for `COc1ccc(C[P+]2(c3ccccc3)CCCCC2)cc1.O=[N+]([O-])c1ccc(C[P+]2(c3ccccc3)CCCCC2)cc1.[O-][Cl+3]([O-])([O-])[O-].[O-][Cl+3]([O-])([O-])[O-]` in this assay:
inactive

Outcome logged for CC12Oc3ccc4ccccc4c3CC1Cc1c(ccc3ccccc13)O2 (stereo not given) in this assay:
inactive

Outcome logged for `CN1/C(=N\c2ccccc2)S/C1=N/c1ccccc1` in this assay:
inactive

Outcome logged for CCCCCCCCCCCC(=O)OCC1OC(OC)C(NC(=O)N(CCCl)N=O)C(O)C1O (stereo not given) in this assay:
inactive

Outcome logged for `CCOC(=O)C1(C(=O)OCC)OC(C)=NC1(C(=O)OC)C(=O)OC` in this assay:
inactive

Outcome logged for `NC(=O)N/N=C1\C[C@H]2CCCC[C@H]2C1` in this assay:
inactive

Outcome logged for COc1cc2c(cc1OC)C1(c3ccccc3)ON=C(c3ccccc3)N1CS2 (stereo not given) in this assay:
inactive

Outcome logged for COc1cc2c3c(c1OC)-c1ccccc1C(C(OC(C)=O)c1ccccc1)C3N(C)CC2 (stereo not given) in this assay:
inactive

Outcome logged for O=C1CCC2(O)c3ccccc3C2Cc2ccccc21 (stereo not given) in this assay:
inactive

Outcome logged for `O=[N+]([O-])c1ccc(-c2nc(/C=N/N3CCCCC3)cs2)o1` in this assay:
inactive

Outcome logged for NC(Cc1ccc(S(=O)(=O)O)cc1)C(=O)NC(Cc1ccc(S(=O)(=O)O)cc1)C(=O)NC(Cc1ccc(S(=O)(=O)O)cc1)C(=O)NC(Cc1ccc(S(=O)(=O)O)cc1)C(=O)O (stereo not given) in this assay:
inactive

Outcome logged for CN1C(=O)N(c2ccccc2)C2(CCN(CC3COc4ccccc4O3)CC2)C1=O (stereo not given) in this assay:
inactive

Outcome logged for `Cc1cc2cc3c(cc2c(-c2ccc([N+](=O)[O-])cc2)n1)OCO3` in this assay:
inactive

Outcome logged for `COc1cc(NCc2ccc3nc(N)nc(N)c3c2C)cc(OC)c1OC` in this assay:
active

Outcome logged for `NC(=O)c1c2c(n3ccccc13)C(=O)c1ccccc1C2=O` in this assay:
inactive

Outcome logged for `CCOC(=O)C1Cc2ccc3c4c(ccc(c24)C1)CC(C(=O)OCC)C3` in this assay:
inactive

Outcome logged for `C[C@]12CC=CC(=O)[C@@]1(C)CCC(=O)C2` in this assay:
inactive

Outcome logged for O=C(CC1C(=O)Nc2ccccc2[S+]1[O-])Nc1cccc(Cl)c1 (stereo not given) in this assay:
inactive

Outcome logged for CC1(C)CC2(C)ON=C(c3ccccc3)N2c2ccccc2N1 (stereo not given) in this assay:
inactive

Outcome logged for C=C1CC(COc2ccc3ccc(=O)oc3c2)(c2ccccc2)OC1=O (stereo not given) in this assay:
active

Outcome logged for S=C(N/N=C/c1ccccc1)NC1CC(c2ccccc2)Oc2ccccc21 (stereo not given) in this assay:
inactive

Outcome logged for CCOP(=O)(OCC)C(Nc1ccc(F)cc1)c1cccc([N+](=O)[O-])c1 (stereo not given) in this assay:
inactive

Outcome logged for CCCCCCCCCC1CC(=O)Oc2cccc(O)c21 (stereo not given) in this assay:
inactive

Outcome logged for CC1=NCC[N+]1(CCc1ccccc1)Cc1ccccc1 (stereo not given) in this assay:
inactive

Outcome logged for `COc1ccc(/C=C/C(=O)N[C@@H]2C(=O)N3[C@@H]2SC(C)(C)[C@@H]3C(=O)O)cc1OC` in this assay:
inactive

Outcome logged for `CCN(CC)CCC(=O)N1C/C(=C/c2ccccc2)C(=O)/C(=C\c2ccccc2)C1` in this assay:
active

Outcome logged for O=C(O)C1CC2CC(=O)C1C2 (stereo not given) in this assay:
inactive

Outcome logged for CCCCC(C(=O)C(=O)Nc1ccc(C)cc1C)C(=O)C(C)C (stereo not given) in this assay:
inactive

Outcome logged for CCCCCCCCCCCCC(CC)CCCCC(=O)O (stereo not given) in this assay:
inactive
